From: ChEMBL document CHEMBL1124840

studySystem: Angiotensin II receptor (AT-1) type-1 (Rattus norvegicus, UniProt P29089+P25095)
assayRemarks: Concentration required to 50% inhibition in specific binding of [125- I]A-II to Angiotensin II receptor in rat uterine membrane
Type: cell membranes
Positions of bridges follow the written chain, without caps; N, C: chain ends. Non-standard residues stand in square brackets, D forms with d. Residues, ends and D or L forms follow the SMILES beside them. Pen = CC(C)(S)[C@H](N)C(=O)O
reportedMetric: IC50 (µM)
Write down the numeric answer in µM and omit the unit.

Use these answered entries as a reference point.
CC1(C)SSC(C)(C)[C@@H](C(=O)N[C@@H](Cc2c[nH]cn2)C(=O)N2CCC[C@H]2C(=O)N[C@@H](Cc2ccccc2)C(=O)O)NC(=O)[C@H](Cc2ccc(O)cc2)NC(=O)[C@H]1NC(=O)[C@H](CCCN=C(N)N)NC(=O)[C@@H](N)CC(=O)O (H-DR[Pen]Y[Pen]HPF-OH; disulfide 3-5) = 0.0026
CC(=O)NCSC[C@H](NC(=O)[C@H](CCCN=C(N)N)NC(=O)[C@@H](N)CC(=O)O)C(=O)N[C@@H](Cc1ccc(O)cc1)C(=O)N[C@@H](CSCNC(C)=O)C(=O)N[C@@H](Cc1c[nH]cn1)C(=O)N1CCC[C@H]1C(=O)N[C@@H](Cc1ccccc1)C(=O)O = 10

Next up:
Report IC50 for CC1(C)SSC[C@@H](C(=O)N[C@@H](Cc2c[nH]cn2)C(=O)N2CCC[C@H]2C(=O)N[C@@H](Cc2ccccc2)C(=O)O)NC(=O)[C@H](Cc2ccc(O)cc2)NC(=O)[C@H]1NC(=O)[C@H](CCCN=C(N)N)NC(=O)[C@@H](N)CC(=O)O (H-DR[Pen]YCHPF-OH; disulfide 3-5) please.
0.058
